Origin of the recorded values: ChEMBL document CHEMBL4376833

- Test system: Staphylococcus aureus
- assay: Antibiofilm activity against methicillin-resistant Staphylococcus aureus assessed as inhibition of biofilm formation by measuring residual biofilm growth incubated for overnight at 10-fold dilution by crystal violet staining based microtiter plate assay relative to control
- Format: functional
Non-standard residues stand in square brackets, D forms with d. Residues, ends and D or L forms follow the SMILES beside them. hArg = N=C(N)NCCCC[C@H](N)C(=O)O; Orn = NCCC[C@H](N)C(=O)O; Dab = NCC[C@H](N)C(=O)O; Dap = NC[C@H](N)C(=O)O
Field: label. Allowed values: 1 (yes) (residual biofilm growth (% of control) < 50%) or 0 (no) (residual biofilm growth (% of control) >= 50%).

[
  {
    "compound": "CC[C@H](C)[C@H](NC(=O)[C@H](CC(C)C)NC(=O)[C@H](CCCNC(=N)N)NC(=O)[C@@H](N)C(C)C)C(=O)N[C@@H](CCCN)C(=O)N[C@@H](C)C(=O)N[C@H](C(=O)N[C@@H](CCCNC(=N)N)C(=O)N[C@H](C(=O)N[C@@H](Cc1c[nH]c2ccccc12)C(=O)N[C@@H](CCCNC(=N)N)C(=O)N[C@@H](CCCNC(=N)N)C(N)=O)[C@@H](C)CC)C(C)C (H-VRLI[Orn]AVRIWRR-NH2)",
    "category_label": "0 (no)"
  },
  {
    "compound": "CC[C@H](C)[C@H](NC(=O)[C@H](CC(C)C)NC(=O)[C@H](CCCNC(=N)N)NC(=O)[C@@H](N)C(C)C)C(=O)N[C@H](C(=O)N[C@@H](C)C(=O)N[C@H](C(=O)N[C@@H](CCCNC(=N)N)C(=O)N[C@@H](CN)C(=O)N[C@@H](Cc1c[nH]c2ccccc12)C(=O)N[C@@H](CCCNC(=N)N)C(=O)N[C@@H](CCCNC(=N)N)C(N)=O)C(C)C)C(C)C (H-VRLIVAVR[Dap]WRR-NH2)",
    "category_label": "0 (no)"
  },
  {
    "compound": "CC[C@H](C)[C@H](NC(=O)[C@H](CCCNC(=N)N)NC(=O)[C@H](CCN)NC(=O)[C@H](C)NC(=O)[C@@H](NC(=O)[C@@H](NC(=O)[C@H](CC(C)C)NC(=O)[C@H](CCCNC(=N)N)NC(=O)[C@@H](N)C(C)C)[C@@H](C)CC)C(C)C)C(=O)N[C@@H](Cc1c[nH]c2ccccc12)C(=O)N[C@@H](CCCNC(=N)N)C(=O)N[C@@H](CCCNC(=N)N)C(N)=O (H-VRLIVA[Dab]RIWRR-NH2)",
    "category_label": "0 (no)"
  },
  {
    "compound": "CC[C@H](C)[C@H](NC(=O)[C@H](CCCCNC(=N)N)NC(=O)[C@@H](NC(=O)[C@H](C)NC(=O)[C@@H](NC(=O)[C@@H](NC(=O)[C@H](CC(C)C)NC(=O)[C@H](CCCNC(=N)N)NC(=O)[C@@H](N)C(C)C)[C@@H](C)CC)C(C)C)C(C)C)C(=O)N[C@@H](Cc1c[nH]c2ccccc12)C(=O)N[C@@H](CCCNC(=N)N)C(=O)N[C@@H](CCCNC(=N)N)C(N)=O (H-VRLIVAV[hArg]IWRR-NH2)",
    "category_label": "1 (yes)"
  }
]

Hello, I'm reviewing records and need to know if residual biofilm growth (% of control) of CC[C@H](C)[C@H](NC(=O)[C@H](CCCNC(=N)N)NC(=O)[C@@H](NC(=O)[C@H](C)NC(=O)[C@@H](NC(=O)[C@@H](NC(=O)[C@H](CC(C)C)NC(=O)[C@H](CCCNC(=N)N)NC(=O)[C@@H](N)C(C)C)[C@@H](C)CC)C(C)C)C(C)C)C(=O)N[C@@H](Cc1c[nH]c2ccccc12)C(=O)N[C@@H](CCCCNC(=N)N)C(=O)N[C@@H](CCCNC(=N)N)C(N)=O (H-VRLIVAVRIW[hArg]R-NH2) is below 50%. Could you check?
1 (yes)
